subject-of-test: RORγ (Homo sapiens, UniProt P51449)
Sequence (P51449 whole entry, looked up, the tested form may be a part): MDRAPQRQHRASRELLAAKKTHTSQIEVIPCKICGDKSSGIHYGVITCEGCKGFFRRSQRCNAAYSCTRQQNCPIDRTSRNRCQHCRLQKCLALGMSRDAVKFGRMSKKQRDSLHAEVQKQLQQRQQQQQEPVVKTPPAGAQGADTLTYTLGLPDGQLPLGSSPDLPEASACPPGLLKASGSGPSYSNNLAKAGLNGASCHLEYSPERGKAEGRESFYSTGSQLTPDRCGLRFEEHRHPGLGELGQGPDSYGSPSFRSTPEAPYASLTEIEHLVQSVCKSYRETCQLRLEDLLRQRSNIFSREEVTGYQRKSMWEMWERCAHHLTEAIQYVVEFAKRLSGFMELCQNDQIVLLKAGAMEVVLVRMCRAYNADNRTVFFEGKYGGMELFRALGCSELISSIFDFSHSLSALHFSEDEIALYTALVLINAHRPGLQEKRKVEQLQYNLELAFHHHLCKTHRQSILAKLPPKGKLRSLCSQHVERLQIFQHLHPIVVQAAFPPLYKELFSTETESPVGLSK
assay-remarks: RORγ Gal4 Reporter Gene Assay
Format: cell-based
test-context: renilla normalised (RENnorm) luciferase, 293T cells
I'd be grateful if you could share measured pIC50 (REN) for these entries.
One number for each entry.

> print(dat)
                                   compound  quantity.name  observed.measurement
1  CCS(=O)(=O)c1ccc(CC(=O)Nc2nc(-c3ccccc3)c(Cc3ccccc3)s2)cc1 [Example 211]    pIC50 (REN)                   6.4
2  CC(C)(C)c1cc(-c2sc(C(=O)N[C@H]3C[C@H](C(=O)O)C3)[n+]([O-])c2CC2CCCCC2)cc(C(C)(C)C)n1 [Example 22]    pIC50 (REN)                   7.1
3  CC(C)(C)c1cc(-c2sc(C(=O)NC3CC(C(=O)O)C3)nc2CC2CCCCC2)nc(C2(C)CC2)n1 (stereo not shown) [19/12]    pIC50 (REN)                   6.7

Could you now look at the following compound, please?
May I ask what pIC50 (REN) has been recorded for CC(C)(C)NS(=O)(=O)c1ccc(-c2sc(C(=O)NC3CCC3)[n+]([O-])c2CC2CCCCC2)c2ccccc12 [Example 22/1] ?
7.5
